Test: Biodistribution in rabbits: biological half life in the brain by gamma camera imaging
Format: in vivo, Japanese white rabbits (male)
Settings: rabbit, in vivo
Protocol: Japanese white rabbits (male) were anesthetized with a pentobarbital solution (2.5 mg/kg), and Tc-99m(BI-11o) (0.2 ml, […]) was administered via the carotid artery under a gamma camera (GCA-90B, Toshiba Co., Ltd.). […] In the same manner as in Example 10 using other technetium-99m-labeled polyaminedithiol compounds instead of Tc-99m-(BI-11o), their biodistribution in rabbits was examined, and their biological half-life in the brain was calculated.
Mark condition met only for Biological half-life in brain, Second phase values smaller than 100 min; exact matches and larger values are condition not met.

(Q) # strict comparison: is reported Biological half-life in brain, Second phase < 100 min? input = CC(C)(S)CNCCNC(CN1CCNCC1)C(C)(C)S (stereo not shown) [Compound 11h]
(A) condition met

(Q) # TODO verify Biological half-life in brain, Second phase < 100 min strictly for this compound: CCCC(C)NCC(NCCNCC(C)(C)S)C(C)(C)S (stereo not shown) [Compound 11l]
(A) condition not met

(Q) Is the reported Biological half-life in brain, Second phase for CC1CCN(CC(NCCNCC(C)(C)S)C(C)(C)S)CC1 (stereo not shown) [Compound 11p] strictly below 100 min?
(A) condition met

(Q) Consider the compound CCCCN(CC)CC(NCCNCC(C)(C)S)C(C)(C)S (stereo not shown) [Compound 11n] . Is its Biological half-life in brain, Second phase strictly less than 100 min?
(A) condition not met

(Q) Take the compound CC(C)(S)CNCCNC(CN1CCN(Cc2ccccc2)CC1)C(C)(C)S (stereo not shown) [Compound 11w] and say whether its Biological half-life in brain, Second phase is less than 100 min.
(A) condition not met

(Q) Report whether reported Biological half-life in brain, Second phase is lower than 100 min (strictly) for CCCCCNCC(NCCNCC(C)(C)S)C(C)(C)S (stereo not shown) [Compound 11d]
(A) condition not met

(Q) Dear colleague, could you confirm whether Biological half-life in brain, Second phase of CCCCSC(C)(C)CNCCNC(CN1CCC(C)CC1)C(C)(C)S (stereo not shown) falls below 100 min? Thanks.
(A) condition not met

(Q) Hello, I'm reviewing records and need to know if Biological half-life in brain, Second phase of CCCCCCNCC(NCCNCC(C)(C)S)C(C)(C)S (stereo not shown) [Compound 11m] is below 100 min. Could you check?
(A) condition met

(Q) Quick check: Biological half-life in brain, Second phase of CN1CCN(CC(NCCNCC(C)(C)S)C(C)(C)S)CC1 (stereo not shown) [Compound 11i] under 100 min?
(A) condition not met

(Q) is_below(Biological half-life in brain, Second phase, 100 min) for CC(C)(S)CNCCNC(CN1CCCCC1)C(C)(C)S (stereo not shown) [Compound 11g] ?
(A) condition met

(Q) Strictly below 100 min in Biological half-life in brain, Second phase? CC(C)(S)CNCCNC(CN1CCCC1)C(C)(C)S (stereo not shown) [Compound 11r]
(A) condition met

(Q) Please let me know if CC(C)(S)CNCCNC(CN1CCOCC1)C(C)(C)S (stereo not shown) [Compound 11k] shows Biological half-life in brain, Second phase below 100 min.
(A) condition met

(Q) Strictly below 100 min in Biological half-life in brain, Second phase? CC(C)(S)CNCCNC(CN1CCC(c2ccccc2)CC1)C(C)(C)S (stereo not shown) [Compound 11x]
(A) condition not met
